These measurements were taken from ChEMBL document CHEMBL1131139.

Recorded MIC, one value per entry.
tested on: Streptococcus pneumoniae; test: In vitro inhibitory activity against Streptococcus pneumoniae (EryRi 030SJ5i); assay type: functional
MEASUREMENT LABEL: MIC (µg/mL)

compound=CC[C@H]1OC(=O)[C@H](C)C(=O)[C@H](C)[C@@H](O[C@@H]2O[C@H](C)C[C@H](N(C)C)[C@H]2O)[C@](C)(OC)C[C@@H](C)C(=O)[C@H](C)[C@H]2N(CCCCc3ccnc4ccc(OC)cc34)C(=O)O[C@]12C measurement_label=MIC assay_value=0.02
compound=C#CCNCCO/N=C1\[C@H](C)C[C@@](C)(OC)[C@H](O[C@@H]2O[C@H](C)C[C@H](N(C)C)[C@H]2O)[C@@H](C)C(=O)[C@@H](C)C(=O)O[C@H](CC)[C@@](C)(O)[C@H](O)[C@H]1C measurement_label=MIC assay_value=40
compound="CC[C@H]1OC(=O)[C@H](C)C(=O)[C@H](C)[C@@H](O[C@@H]2O[C@H](C)C[C@H](N(C)C)[C@H]2O)[C@](C)(OC)C[C@@H](C)/C(=N\\OC2CCCN(CCCc3ccccc3)C2)[C@H](C)[C@@H](O)[C@]1(C)O (stereo not given in full)" measurement_label=MIC assay_value=0.3
compound=CC[C@H]1OC(=O)[C@H](C)C(=O)[C@H](C)[C@@H](O[C@@H]2O[C@H](C)C[C@H](N(C)C)[C@H]2O)[C@](C)(OC)C[C@@H](C)/C(=N\O[C@@H]2CCCNC2)[C@H](C)[C@@H](O)[C@]1(C)O measurement_label=MIC assay_value=0.3
compound=CC[C@H]1OC(=O)[C@H](C)C(=O)[C@H](C)[C@@H](O[C@@H]2O[C@H](C)C[C@H](N(C)C)[C@H]2O)[C@](C)(OC)C[C@@H](C)C(=O)[C@H](C)[C@H]2NC(=O)O[C@@]21C measurement_label=MIC assay_value=2.5
